assay: Compound cytotoxicity, XTT-based colorimetric assay; type: cell-based; conditions: human; uninfected MT2 cells, day 4, XTT; read-out: CC50
Catalogue of CC50 at 4 days values

Consider the compound CS(=O)(=O)Nc1nn(CCN2CCN(S(C)(=O)=O)CC2)c2c(-n3c([C@H](Cc4cc(F)cc(F)c4)NC(=O)Cn4nc(C5CC5)c5c4C[C@@H]4C[C@H]54)nc4nc(C5CCC(F)(F)CC5)ccc4c3=O)ccc(Cl)c12 (atropisomer, axis not shown; (P)) and give its measured CC50 at 4 days.
> 20 nM

Reported CC50 at 4 days, compound CS(=O)(=O)Nc1nn(CCN2CC(C(F)F)C2)c2c(-n3c([C@H](Cc4cc(F)cc(F)c4)NC(=O)Cn4nc(C(F)F)c5c4C(F)(F)[C@@H]4C[C@H]54)nc4nc(C5CCC(F)(F)CC5)ccc4c3=O)ccc(Cl)c12 (atropisomer, axis not shown; (P)) : ____
> 50 nM

====

# Lookup of reported CC50 at 4 days keyed by entry
assay: Compound cytotoxicity, XTT-based colorimetric assay; type: cell-based; settings: human; uninfected MT2 cells, day 4, XTT; read-out: CC50

Observe how each entry below is paired with its result.
INSERT INTO assay_data (compound, result) VALUES
  ('COCCCn1nc(NS(C)(=O)=O)c2c(Cl)ccc(-n3c([C@H](Cc4cc(F)cc(F)c4)NC(=O)Cn4nc(C(F)F)c5c4C(F)(F)[C@@H]4C[C@H]54)nc4nc(C5CCC(F)(F)CC5)cc(NCCc5ccccc5)c4c3=O)c21 (atropisomer, axis not shown; (P)) [Example 521]', '> 0.02 µM'),
  ('C[C@@H]1CN(Cc2cc(C3CCC(F)(F)CC3)nc3nc([C@H](Cc4cc(F)cc(F)c4)NC(=O)Cn4nc(C(F)F)c5c4C(F)(F)[C@@H]4C[C@H]54)n(-c4ccc(Cl)c5c(NS(C)(=O)=O)nn(CCN6CCC(F)(F)CC6)c45)c(=O)c23)C[C@H](C)O1 (atropisomer, axis not shown; (P)) [Example 525]', '> 0.02 µM'),
  ('Cc1cc(C2(F)CCC(F)(F)CC2)nc2nc([C@H](Cc3cc(F)cc(F)c3)NC(=O)Cn3nc(C(F)(F)F)c4c3C(F)(F)[C@@H]3C[C@H]43)n(-c3ccc(Cl)c4c(NS(C)(=O)=O)nn(CCN5C[C@@H](C)O[C@@H](C)C5)c34)c(=O)c12 (atropisomer, axis not shown; (P)) [Example 594]', '> 0.02 µM');

Fill in: CC50 at 4 days of CS(=O)(=O)Nc1nn(CCN2CCC(F)(F)CC2)c2c(-n3c([C@H](Cc4cc(F)cc(F)c4)NC(=O)Cn4nc(C5CC5)c5c4C[C@@H]4C[C@H]54)nc4nc(C5CCC(F)(F)CC5)c(F)cc4c3=O)ccc(Cl)c12 (atropisomer, axis not shown; (P)) [Example 239] is ___
> 0.05 µM

Would you mind telling me what CC50 at 4 days value was observed for Cc1cc(C2CCC(F)(F)CC2)nc2nc([C@H](Cc3cc(F)cc(F)c3)NC(=O)Cn3nc(C(F)F)c4c3C(F)(F)[C@@H]3C[C@H]43)n(-c3ccc(Cl)c4c(NS(C)(=O)=O)nn(C[C@@H](C)N5C[C@H](F)C[C@H](F)C5)c34)c(=O)c12 (atropisomer, axis not shown; (P)) [Example 683] ?
> 0.02 µM

Suppose we examine the compound COCCCn1nc(NS(C)(=O)=O)c2c(Cl)ccc(-n3c([C@H](Cc4cc(F)cc(F)c4)NC(=O)Cn4nc(C(F)F)c5c4C(F)(F)[C@@H]4C[C@H]54)nc4nc(C5CCC(F)(F)CC5)cc(CF)c4c3=O)c21 (atropisomer, axis not shown; (P)) [Example 449] ; what CC50 at 4 days value has been reported?
> 0.02 µM

Recorded CC50 at 4 days for CC(C)S(=O)(=O)N1CCN(CCn2nc(NS(C)(=O)=O)c3c(Cl)ccc(-n4c([C@H](Cc5cc(F)cc(F)c5)NC(=O)Cn5nc(C(F)F)c6c5C(F)(F)[C@@H]5C[C@H]65)nc5nc(C6CCC(F)(F)CC6)ccc5c4=O)c32)CC1 (atropisomer, axis not shown; (P)) [Example 195] , please?
> 0.05 µM

====

Catalogue of compounds with associated CC50 at 4 days
assay: Compound cytotoxicity, XTT-based colorimetric assay; assay type: cell-based; conditions: human; uninfected MT2 cells, day 4, XTT; read-out: CC50

Worked cases, answers included:
INSERT INTO measurements (compound, measure_name, result) VALUES
  ('CS(=O)(=O)Nc1nn(CCN2C[C@@H](F)[C@@H](F)C2)c2c(-n3c([C@H](Cc4cc(F)cc(F)c4)NC(=O)Cn4nc(C(F)F)c5c4C(F)(F)[C@@H]4C[C@H]54)nc4nc(C5CCC(F)(F)CC5)cc(C(F)F)c4c3=O)ccc(Cl)c12 (atropisomer, axis not shown; (P)) [Example 259]', 'CC50 at 4 days', '> 50 nM'),
  ('Cc1cc(C2CCC(F)(F)CC2)nc2nc([C@H](Cc3cc(F)cc(F)c3)NC(=O)Cn3nc(C(F)F)c4c3C(F)(F)[C@@H]3C[C@H]43)n(-c3ccc(Cl)c4c(NS(C)(=O)=O)nn(CCN5CC(F)(F)C(F)(F)C5)c34)c(=O)c12 (atropisomer, axis not shown; (P)) [Example 247]', 'CC50 at 4 days', '> 50 nM');

Moving on to the next compound.
Fill blank: measured CC50 at 4 days of the compound COCCNc1cc(C2CCC(F)(F)CC2)nc2nc([C@H](Cc3cc(F)cc(F)c3)NC(=O)Cn3nc(C(F)F)c4c3C(F)(F)[C@@H]3C[C@H]43)n(-c3ccc(Cl)c4c(NS(C)(=O)=O)nn(CCOC)c34)c(=O)c12 (atropisomer, axis not shown; (P)) [Example 134] is ____.
> 50 nM

====

Reported CC50 at 4 days values are given for each entry in this list.
Assay: Compound cytotoxicity, XTT-based colorimetric assay
Assay type: cell-based
Conditions: human; uninfected MT2 cells, day 4, XTT; read-out: CC50
Experimental: Compound cytotoxicity and the corresponding CC50 values were determined using the same protocol as described in the antiviral assay except that uninfected cells were used. Cytotoxicity was assessed on day 4 in uninfected MT2 cells by using an XTT (2,3-bis[2-Methoxy-4-nitro-5-sulfophenyl]-2H-tetrazolium-5-carboxyanilide inner salt)-based colorimetric assay (Sigma-Aldrich, St Louis, Mo).

INSERT INTO results (compound, result) VALUES
  ('C[C@H](CN1C[C@H](F)C[C@H](F)C1)n1nc(NS(C)(=O)=O)c2c(Cl)ccc(-n3c([C@H](Cc4cc(F)cc(F)c4)NC(=O)Cn4nc(C(F)F)c5c4C(F)(F)[C@@H]4C[C@H]54)nc4nc(C5CCC(F)(F)CC5)cc(C5CC5)c4c3=O)c21 (atropisomer, axis not shown; (P))', '> 20 nM'),
  ('Cc1cc(C2CCC(F)(F)CC2)nc2nc([C@H](Cc3cc(F)cc(F)c3)NC(=O)Cn3nc(C(F)F)c4c3C(F)(F)[C@@H]3C[C@H]43)n(-c3ccc(Cl)c4c(NS(C)(=O)=O)nn(CCN5CCOCC5)c34)c(=O)c12 (atropisomer, axis not shown; (P))', '> 50 nM');

Which measured CC50 at 4 days value corresponds to COCCCn1nc(NS(C)(=O)=O)c2c(Cl)ccc(-n3c([C@H](Cc4cc(F)cc(F)c4)NC(=O)Cn4nc(C(F)F)c5c4C(F)(F)[C@@H]4C[C@H]54)nc4nc(C5CCC(F)(F)CC5)cc(NCCC#N)c4c3=O)c21 (atropisomer, axis not shown; (P)) ?
> 20 nM

====

Assay: Compound cytotoxicity, XTT-based colorimetric assay
Type: cell-based
Details: human; uninfected MT2 cells, day 4, XTT; read-out: CC50
Description: Compound cytotoxicity and the corresponding CC50 values were determined using the same protocol as described in the antiviral assay except that uninfected cells were used. Cytotoxicity was assessed on day 4 in uninfected MT2 cells by using an XTT (2,3-bis[2-Methoxy-4-nitro-5-sulfophenyl]-2H-tetrazolium-5-carboxyanilide inner salt)-based colorimetric assay (Sigma-Aldrich, St Louis, Mo).
measure name: CC50 at 4 days

INSERT INTO measurements (compound, result) VALUES
  ('Cc1cc(C2(CF)CCC(F)(F)CC2)nc2nc([C@H](Cc3cc(F)cc(F)c3)NC(=O)Cn3nc(C4CC4)c4c3C[C@@H]3C[C@H]43)n(-c3ccc(Cl)c4c(NS(C)(=O)=O)nn(CCN5C[C@@H](C)O[C@@H](C)C5)c34)c(=O)c12 (atropisomer, axis not shown; (P)) [Example 557]', '> 0.02 µM'),
  ('COCCCn1nc(NS(C)(=O)=O)c2c(Cl)ccc(-n3c([C@H](Cc4cc(F)cc(F)c4)NC(=O)Cn4nc(C5CC5)c5c4C[C@@H]4C[C@H]54)nc4nc(C5CCC(F)(F)CC5)cc(C)c4c3=O)c21 (atropisomer, axis not shown; (P)) [Example 87]', '> 0.05 µM');

// next item, CC50 at 4 days requested
Please look up its CC50 at 4 days: C[C@@H]1CN(CCn2nc(NS(C)(=O)=O)c3c(Cl)ccc(-n4c([C@H](Cc5cc(F)cc(F)c5)NC(=O)Cn5nc(C6CC6)c6c5C[C@@H]5C[C@H]65)nc5nc(C6CCC(F)(F)CC6)cc(C6CC6)c5c4=O)c32)C[C@H](C)O1 (atropisomer, axis not shown; (P)) [Example 324]
> 0.05 µM

// provenance: patent US12594276B2
